Quick list: log10 of Kd per entry.
# System Tested: T1, PUF4 RNA-binding domain (Saccharomyces cerevisiae, UniProt P25339 537-888)
# T1 sequence: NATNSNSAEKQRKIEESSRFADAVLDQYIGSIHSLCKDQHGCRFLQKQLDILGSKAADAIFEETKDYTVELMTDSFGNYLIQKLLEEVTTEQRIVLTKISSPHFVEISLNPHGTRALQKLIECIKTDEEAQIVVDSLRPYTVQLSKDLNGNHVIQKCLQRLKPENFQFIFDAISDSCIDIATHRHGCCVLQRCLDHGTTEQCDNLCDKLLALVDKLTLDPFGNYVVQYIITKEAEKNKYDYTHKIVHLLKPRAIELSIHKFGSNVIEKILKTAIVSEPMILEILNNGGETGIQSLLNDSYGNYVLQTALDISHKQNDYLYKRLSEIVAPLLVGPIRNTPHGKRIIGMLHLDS
# Assay Details: Mg; RNA-MaP; 20 mM Na-HEPES pH 7.4, 30 mM KOAc, 0.75 mM MgCl2, 0.1% Tween-20, 5% glycerol, 0.1 mg/mL BSA, 2 mM DTT; 25 C; 0.0125-409.6 nM protein
# Condition Details: tags: N-His6-TEV cleaved; C-SNAP kept, Cy3B-labelled; label: tethered on chip by stalled RNA polymerase
Readout: log10 of Kd (log10 of the value in nM)

- Binder: "Ic_S2_P5E.1_K5.1_C5.1_H5.1_A5.1_[T5A]_[T6C]_[A7G]_F5.1_[T9A]_[A10G]_T5.1 (ssRNA) RNA: UUUGAUUAAUAUGAUAUCGUUCUUUCUUGUAACGUAGUUCUUUCUCGAUAUCAUAUUAAUCUUU"
  log10 of Kd: 1.84
- Binder: "Id_ii_S2_P5E.3_K5.2_C5.2_[T-1A]_H5.2_A5.1_F5.1_T5.2_[T11C]_[A12C] (ssRNA) RNA: UUUGAUUAAUAUGAUAUCGUUCUUUCUCAUAUAUUAUUACCUUCUUUCUCGAUAUCAUAUUAAUCUUU"
  log10 of Kd: 1.84
- Binder: "UCUCUUGCACACUAUAACUCUCUU (ssRNA) [Id_ii_S1_P3E.4_K3.3_C3.2_[C-2G]_[T-1C]_H3.3_A3.1_F3.1_T3.2_[T9A]_[A10C]]"
  log10 of Kd: 2.04
- Binder: "Ic_S2_P4E.1_K4.1_C4.1_H4.1_A4.1_[T5G]_[A6C]_[T7A]_F4.1_[A9T]_T4.1 (ssRNA) RNA: UUUGAUUAAUAUGAUAUCGUUCUUUCUUGUAGCAUUUUCUUUCUCGAUAUCAUAUUAAUCUUU"
  log10 of Kd: 0.97
- Binder: "UCUCUUUUUGUAUUAUUAAUUCUCUU (ssRNA) [Id_ii_S1_P5E.2_K5.1_C5.2_[C-2T]_H5.1_A5.1_F5.1_T5.2_[T11A]_[A12T]]"
  log10 of Kd: 0.94
